For each entry below, report its Selectivity SC/CM value.
Molecular target: ErbB4 on neonatal rat cardiomyocytes (rat) (UniProt Q62956)
Sequence (Q62956 26-1308): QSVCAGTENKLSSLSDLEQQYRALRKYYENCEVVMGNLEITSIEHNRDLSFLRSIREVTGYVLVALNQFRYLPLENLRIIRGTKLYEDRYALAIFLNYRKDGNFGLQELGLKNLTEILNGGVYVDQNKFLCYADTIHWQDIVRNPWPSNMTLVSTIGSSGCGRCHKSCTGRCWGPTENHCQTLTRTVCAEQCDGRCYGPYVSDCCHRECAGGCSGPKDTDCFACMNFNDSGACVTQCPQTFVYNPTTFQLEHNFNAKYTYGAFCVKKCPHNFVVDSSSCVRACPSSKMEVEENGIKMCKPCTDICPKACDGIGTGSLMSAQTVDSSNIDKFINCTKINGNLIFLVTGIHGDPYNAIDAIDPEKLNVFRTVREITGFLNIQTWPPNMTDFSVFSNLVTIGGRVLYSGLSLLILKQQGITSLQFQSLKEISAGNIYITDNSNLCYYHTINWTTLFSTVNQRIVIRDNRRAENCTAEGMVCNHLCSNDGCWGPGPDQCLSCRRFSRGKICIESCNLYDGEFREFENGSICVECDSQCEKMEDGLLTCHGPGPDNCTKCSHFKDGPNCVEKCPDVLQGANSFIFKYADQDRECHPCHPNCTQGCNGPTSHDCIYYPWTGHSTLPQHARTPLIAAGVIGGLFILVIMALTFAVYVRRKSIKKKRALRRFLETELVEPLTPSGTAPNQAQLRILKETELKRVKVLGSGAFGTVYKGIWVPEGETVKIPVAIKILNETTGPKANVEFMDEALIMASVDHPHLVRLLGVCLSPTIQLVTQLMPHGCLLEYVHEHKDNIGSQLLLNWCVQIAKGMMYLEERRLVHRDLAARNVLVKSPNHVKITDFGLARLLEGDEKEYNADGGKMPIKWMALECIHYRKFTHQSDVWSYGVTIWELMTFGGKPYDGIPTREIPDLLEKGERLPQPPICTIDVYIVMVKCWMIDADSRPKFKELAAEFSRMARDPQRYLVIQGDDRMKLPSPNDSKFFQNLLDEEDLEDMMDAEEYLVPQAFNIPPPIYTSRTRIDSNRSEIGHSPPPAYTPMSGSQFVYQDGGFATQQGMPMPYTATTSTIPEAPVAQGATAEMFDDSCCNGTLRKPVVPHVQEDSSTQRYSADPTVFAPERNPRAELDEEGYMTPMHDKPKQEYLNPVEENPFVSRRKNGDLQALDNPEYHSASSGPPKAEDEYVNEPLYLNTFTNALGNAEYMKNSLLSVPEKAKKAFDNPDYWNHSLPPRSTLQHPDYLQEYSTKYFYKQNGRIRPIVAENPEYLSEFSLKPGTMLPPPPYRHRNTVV
Assay: cell-based or functional assay

-- ask Can you look up the measured Selectivity SC/CM of huNRG1(S177-Q237)(3E6)::GG::huFcSEFL2 (Pb) (Fc fusion) SHLVKCAEKHKSFCVNGGECYVIEGSSIPSRFLCKCPNEFTGDRCQKDFMASFYKAEELYQGGDKTHTCPPCPAPELLGGPSVFLFPPKPKDTLMISRTPEVTCVVVDVSHEDPEVKFNWYVDGVEVHNAKTKPCEEQYGSTYRCVSVLTVLHQDWLNGKEYKCKVSNKALPAPIEKTISKAKGQPREPQVYTLPPSREEMTKNQVSLTCLVKGFYPSDIAVEWESNGQPENNYKTTPPVLDSDGSFFLYSKLTVDKSRWQQGNVFSCSVMHEALHNHYTQKSLSLSPGK for me?
-- reply > 10000

-- ask Can you look up the measured Selectivity SC/CM of huNRG1(S177-Q237)(_200E)::GG::huFcSEFL2 (Pb) (Fc fusion) SHLVKCAEKEKTFCVNGGECFMVEDLSNPSRYLCKCPNEFTGDRCQNYVMASFYKAEELYQGGDKTHTCPPCPAPELLGGPSVFLFPPKPKDTLMISRTPEVTCVVVDVSHEDPEVKFNWYVDGVEVHNAKTKPCEEQYGSTYRCVSVLTVLHQDWLNGKEYKCKVSNKALPAPIEKTISKAKGQPREPQVYTLPPSREEMTKNQVSLTCLVKGFYPSDIAVEWESNGQPENNYKTTPPVLDSDGSFFLYSKLTVDKSRWQQGNVFSCSVMHEALHNHYTQKSLSLSPGK for me?
-- reply 11
